B1: ELF3 (parent)
chain: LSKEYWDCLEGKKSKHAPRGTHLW

Variants of: B1
assayMethodText: protein stability index of a GFP-peptide fusion (GPS, HEK-293T) (PSI 1-6); higher = more stable;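 also: lentivirally expressed fusions sorted by FACS into six bins by GFP to DsRed ratio, PSI derived from sequencing read proportions per bin multiplied by bin number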
conditionSummary: c terminus: a fixed tail appended
measuredParameter: protein stability index
Please state the value as a number alone, without comment.

Input: Identify the reported protein stability index for the following entry. `K12Q`
Output: 2.99

Input: Name the recorded protein stability index of the item `D7Q` in your answer.
Output: 3

Input: Tell me measured protein stability index for `G11K` please.
Output: 2.97

Input: // fetch protein stability index given entry `K13G`
Output: 3.08

Input: Please supply the value of reported protein stability index for the item `H16K`
Output: 3.05

Input: Given the variant `K15P` , write its reported protein stability index.
Output: 2.53

Input: Read the entry `E10S` and write its reported protein stability index.
Output: 2.49

Input: Specify protein stability index for `E10H` and stop.
Output: 2.15

Input: Quick one: give measured protein stability index for `H22I`
Output: 2.42

Input: Identify protein stability index associated with the variant `W6Q`
Output: 3.43

Input: Please report the measured protein stability index for `W6I`
Output: 2.96

Input: Give the reported value of protein stability index for this record: `S14Q`
Output: 2.71

Input: Specify measured protein stability index for `G11S` .
Output: 3.5

Input: Supply measured protein stability index of `S14C` in your reply.
Output: 2.1

Input: Using the record for `W24Y` , state its measured protein stability index.
Output: 2.9

Input: Give a short answer stating reported protein stability index for `W6H` .
Output: 2.33

Input: Look up and state reported protein stability index for `C8K`
Output: 3.73

This collection of values is drawn from the supplement of paper PMC10567573.
